Where these numbers come from: ChEMBL document CHEMBL2163241

molecular target: Neutrophil elastase (Homo sapiens) (UniProt P08246); assay: Inhibition of human leukocyte elastase at 25 uM assessed as Kinact/Ki ratio incubated for 15 mins by spectrofluorometry
PROPERTY_MEASURED: Ratio (M⁻¹ s⁻¹)

COMPOUND | OBSERVED_VALUE
CCCC(NC(=O)[C@@H]1CCCN1C(=O)[C@@H](NC(=O)OC(C)(C)C)C(C)C)P(=O)(Oc1ccccc1)Oc1ccccc1 (mixture of isomers) | 2600
CCC(NC(=O)[C@@H]1CCCN1C(=O)[C@@H](NC(=O)OC(C)(C)C)C(C)C)P(=O)(Oc1ccc(SC)cc1)Oc1ccc(SC)cc1 (mixture of isomers) | 165000
CC(C)c1ccc(OP(=O)(Oc2ccc(C(C)C)cc2)C(NC(=O)[C@@H]2CCCN2C(=O)[C@@H](NC(=O)OC(C)(C)C)C(C)C)C(C)C)cc1 (mixture of isomers) | 4200

---

Some compounds, each annotated with its measured Ratio.
target: Pancreatic elastase (Sus scrofa) (UniProt P08419+P00772); assay: Inhibition of porcine pancreatic elastase at 25 uM assessed as Kinact/Ki ratio incubated for 15 mins by spectrofluorometry; type: protein assay
PROPERTY_MEASURED: Ratio (M⁻¹ s⁻¹)

COMPOUND | PROPERTY_MEASURED | OBSERVED_VALUE
CSc1ccc(OP(=O)(Oc2ccc(SC)cc2)C(NC(=O)[C@@H]2CCCN2C(=O)CNC(=O)OC(C)(C)C)C(C)C)cc1 (mixture of isomers) | Ratio | 5100
CSc1ccc(OP(=O)(Oc2ccc(SC)cc2)C(C)NC(=O)[C@@H]2CCCN2C(=O)[C@@H](NC(=O)OC(C)(C)C)C(C)C)cc1 (mixture of isomers) | Ratio | 11400
CCC(NC(=O)[C@@H]1CCCN1C(=O)[C@@H](NC(=O)OC(C)(C)C)C(C)C)P(=O)(Oc1ccccc1)Oc1ccccc1 (mixture of isomers) | Ratio | 12700
CC(C)C(NC(=O)[C@@H]1CCCN1C(=O)[C@@H](NC(=O)OC(C)(C)C)C(C)C)P(=O)(Oc1ccccc1)Oc1ccccc1 (mixture of isomers) | Ratio | 22800

---

Target: Neutrophil elastase (Homo sapiens)
Sequence (whole entry): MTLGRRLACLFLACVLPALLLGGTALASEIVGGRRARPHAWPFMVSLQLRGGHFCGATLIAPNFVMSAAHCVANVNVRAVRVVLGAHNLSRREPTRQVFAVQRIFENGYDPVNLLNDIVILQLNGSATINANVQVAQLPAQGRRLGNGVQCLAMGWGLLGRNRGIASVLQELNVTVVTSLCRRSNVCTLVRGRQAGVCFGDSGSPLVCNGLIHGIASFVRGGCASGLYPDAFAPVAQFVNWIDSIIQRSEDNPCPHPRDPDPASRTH
Assay: Inhibition of human leukocyte elastase at 25 uM assessed as Kinact/Ki ratio incubated for 15 mins by spectrofluorometry

MOLECULE | MEASUREMENT_UNIT | Ratio
CSc1ccc(OP(=O)(Oc2ccc(SC)cc2)C(NC(=O)[C@@H]2CCCN2C(=O)[C@H](C)NC(=O)OCc2ccccc2)C(C)C)cc1 (mixture of isomers) | M⁻¹ s⁻¹ | 144000
CSc1ccc(OP(=O)(Oc2ccc(SC)cc2)C(NC(=O)[C@@H]2CCCN2C(=O)[C@@H](C)NC(=O)OC(C)(C)C)C(C)C)cc1 (mixture of isomers) | M⁻¹ s⁻¹ | 39400
COc1ccc(C(=O)N[C@H](C(=O)N2CCC[C@H]2C(=O)N[C@@H](C(C)C)P(=O)(Oc2ccc(SC)cc2)Oc2ccc(SC)cc2)C(C)C)cc1 | M⁻¹ s⁻¹ | 540000
CCC(NC(=O)[C@@H]1CCCN1C(=O)[C@@H](NC(=O)OC(C)(C)C)C(C)C)P(=O)(Oc1ccc(OC)cc1)Oc1ccc(OC)cc1 (mixture of isomers) | M⁻¹ s⁻¹ | 11000

---

Some compounds, each annotated with its measured Ratio.
Target: Neutrophil elastase (Homo sapiens)
Sequence (whole entry): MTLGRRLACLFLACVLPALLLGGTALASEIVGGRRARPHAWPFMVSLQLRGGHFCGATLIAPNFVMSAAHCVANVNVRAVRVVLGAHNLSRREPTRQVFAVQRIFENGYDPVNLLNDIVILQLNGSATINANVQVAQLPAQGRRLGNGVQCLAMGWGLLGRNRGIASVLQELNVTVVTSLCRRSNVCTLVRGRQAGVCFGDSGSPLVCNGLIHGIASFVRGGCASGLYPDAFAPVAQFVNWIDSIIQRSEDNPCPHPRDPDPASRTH
Experiment: Inhibition of human leukocyte elastase at 25 uM assessed as Kinact/Ki ratio incubated for 15 mins by spectrofluorometry

COMPOUND | Ratio
CCC(NC(=O)[C@@H]1CCCN1C(=O)[C@@H](NC(=O)OC(C)(C)C)C(C)C)P(=O)(Oc1ccc(C(C)C)cc1)Oc1ccc(C(C)C)cc1 (mixture of isomers) | < 50 M⁻¹ s⁻¹
CC(C)c1ccc(OP(=O)(Oc2ccc(C(C)C)cc2)C(C)NC(=O)[C@@H]2CCCN2C(=O)[C@@H](NC(=O)OC(C)(C)C)C(C)C)cc1 (mixture of isomers) | < 50 M⁻¹ s⁻¹
CCCC(NC(=O)[C@@H]1CCCN1C(=O)[C@@H](NC(=O)OC(C)(C)C)C(C)C)P(=O)(Oc1ccc(C(C)(C)C)cc1)Oc1ccc(C(C)(C)C)cc1 (mixture of isomers) | < 50 M⁻¹ s⁻¹

---

Some compounds, each annotated with its measured Ratio.
experiment: Selectivity ratio of Kinact/Ki ratio for porcine pancreatic elastase to Kinact/Ki ratio for human leukocyte elastase

COMPOUND | Ratio
CSc1ccc(OP(=O)(Oc2ccc(SC)cc2)C(NC(=O)[C@@H]2CCCN2C(=O)[C@@H](NC(=O)OC(C)(C)C)C(C)C)C(C)C)cc1 (mixture of isomers) | 15
CC(C)C(NC(=O)[C@@H]1CCCN1C(=O)[C@@H](NC(=O)OC(C)(C)C)C(C)C)P(=O)(Oc1ccccc1)Oc1ccccc1 (mixture of isomers) | 2
CSc1ccc(OP(=O)(Oc2ccc(SC)cc2)[C@@H](NC(=O)[C@@H]2CCCN2C(=O)[C@@H](NC(=O)Cn2ccc(=O)n(CC(=O)O)c2=O)C(C)C)C(C)C)cc1 | 3.5

---

Some compounds, each annotated with its measured Ratio.
assay: Inhibition of trypsin at 25 uM assessed as Kinact/Ki ratio incubated for 15 mins by spectrofluorometry

COMPOUND | Ratio
CSc1ccc(OP(=O)(Oc2ccc(SC)cc2)[C@@H](NC(=O)[C@@H]2CCCN2C(=O)[C@@H](NC(=O)Cn2cc(C)c(=O)n(CC(=O)O)c2=O)C(C)C)C(C)C)cc1 | 280 M⁻¹ s⁻¹
CCC(NC(=O)[C@@H]1CCCN1C(=O)[C@@H](NC(=O)OC(C)(C)C)C(C)C)P(=O)(Oc1ccc(OC)cc1)Oc1ccc(OC)cc1 (mixture of isomers) | < 50 M⁻¹ s⁻¹
COc1ccc(C(=O)N[C@H](C(=O)N2CCC[C@H]2C(=O)NC(C(C)C)P(=O)(Oc2ccc(SC)cc2)Oc2ccc(SC)cc2)C(C)C)cc1 (mixture of isomers) | < 50 M⁻¹ s⁻¹
CC(C)CC(NC(=O)[C@@H]1CCCN1C(=O)[C@@H](NC(=O)OC(C)(C)C)C(C)C)P(=O)(Oc1ccccc1)Oc1ccccc1 (mixture of isomers) | < 50 M⁻¹ s⁻¹
CCCC(NC(=O)[C@@H]1CCCN1C(=O)[C@@H](NC(=O)OC(C)(C)C)C(C)C)P(=O)(Oc1ccccc1)Oc1ccccc1 (mixture of isomers) | < 50 M⁻¹ s⁻¹
CCCC(NC(=O)[C@@H]1CCCN1C(=O)[C@@H](NC(=O)OC(C)(C)C)C(C)C)P(=O)(Oc1ccc(SC)cc1)Oc1ccc(SC)cc1 (mixture of isomers) | 420 M⁻¹ s⁻¹
CSc1ccc(OP(=O)(Oc2ccc(SC)cc2)[C@@H](NC(=O)[C@@H]2CCCN2C(=O)[C@@H](NC(=O)COc2ccc(OCC(=O)O)cc2)C(C)C)C(C)C)cc1 | < 50 M⁻¹ s⁻¹
CC[C@H](C)[C@H](NC(=O)OCc1ccccc1)C(=O)N1CCC[C@H]1C(=O)NC(C(C)C)P(=O)(Oc1ccc(SC)cc1)Oc1ccc(SC)cc1 (mixture of isomers) | < 50 M⁻¹ s⁻¹
CCC(NC(=O)[C@@H]1CCCN1C(=O)[C@@H](NC(=O)OC(C)(C)C)C(C)C)P(=O)(Oc1ccc(C(C)C)cc1)Oc1ccc(C(C)C)cc1 (mixture of isomers) | < 50 M⁻¹ s⁻¹
CC(C)C(NC(=O)[C@@H]1CCCN1C(=O)[C@@H](NC(=O)OC(C)(C)C)C(C)C)P(=O)(Oc1ccccc1)Oc1ccccc1 (mixture of isomers) | < 50 M⁻¹ s⁻¹
CSc1ccc(OP(=O)(Oc2ccc(SC)cc2)C(NC(=O)[C@@H]2CCCN2C(=O)[C@H](COC(C)(C)C)NC(=O)OCc2ccccc2)C(C)C)cc1 (mixture of isomers) | < 50 M⁻¹ s⁻¹
CSc1ccc(OP(=O)(Oc2ccc(SC)cc2)C(C)NC(=O)[C@@H]2CCCN2C(=O)[C@@H](NC(=O)OC(C)(C)C)C(C)C)cc1 (mixture of isomers) | < 50 M⁻¹ s⁻¹
CCCCC(NC(=O)[C@@H]1CCCN1C(=O)[C@@H](NC(=O)OC(C)(C)C)C(C)C)P(=O)(Oc1ccc(SC)cc1)Oc1ccc(SC)cc1 (mixture of isomers) | < 50 M⁻¹ s⁻¹
CSc1ccc(OP(=O)(Oc2ccc(SC)cc2)[C@@H](NC(=O)[C@@H]2CCCN2C(=O)[C@@H](NC(=O)Cn2ccc(=O)n(CC(=O)O)c2=O)C(C)C)C(C)C)cc1 | 235 M⁻¹ s⁻¹
COc1ccc(C(=O)N[C@H](C(=O)N2CCC[C@H]2C(=O)N[C@@H](C(C)C)P(=O)(Oc2ccc(SC)cc2)Oc2ccc(SC)cc2)C(C)C)cc1 | < 50 M⁻¹ s⁻¹
